- TARGET OR SYSTEM: tsV1_M579G (Tupaia chinensis, UniProt L8Y7X1, M598G)
- EXPERIMENTAL DETAILS: cell-based

[
  {
    "SUBSTANCE SMILES": "CCCCC/C=C/C=C/C(=O)NCCc1ccc(O)c(OC)c1",
    "EC50 (µM)": 920
  }
]

---

- TARGET OR SYSTEM: tsV1_M579V (Tupaia chinensis, UniProt L8Y7X1, M598V)
- Sequence (L8Y7X1 1-828 M598V): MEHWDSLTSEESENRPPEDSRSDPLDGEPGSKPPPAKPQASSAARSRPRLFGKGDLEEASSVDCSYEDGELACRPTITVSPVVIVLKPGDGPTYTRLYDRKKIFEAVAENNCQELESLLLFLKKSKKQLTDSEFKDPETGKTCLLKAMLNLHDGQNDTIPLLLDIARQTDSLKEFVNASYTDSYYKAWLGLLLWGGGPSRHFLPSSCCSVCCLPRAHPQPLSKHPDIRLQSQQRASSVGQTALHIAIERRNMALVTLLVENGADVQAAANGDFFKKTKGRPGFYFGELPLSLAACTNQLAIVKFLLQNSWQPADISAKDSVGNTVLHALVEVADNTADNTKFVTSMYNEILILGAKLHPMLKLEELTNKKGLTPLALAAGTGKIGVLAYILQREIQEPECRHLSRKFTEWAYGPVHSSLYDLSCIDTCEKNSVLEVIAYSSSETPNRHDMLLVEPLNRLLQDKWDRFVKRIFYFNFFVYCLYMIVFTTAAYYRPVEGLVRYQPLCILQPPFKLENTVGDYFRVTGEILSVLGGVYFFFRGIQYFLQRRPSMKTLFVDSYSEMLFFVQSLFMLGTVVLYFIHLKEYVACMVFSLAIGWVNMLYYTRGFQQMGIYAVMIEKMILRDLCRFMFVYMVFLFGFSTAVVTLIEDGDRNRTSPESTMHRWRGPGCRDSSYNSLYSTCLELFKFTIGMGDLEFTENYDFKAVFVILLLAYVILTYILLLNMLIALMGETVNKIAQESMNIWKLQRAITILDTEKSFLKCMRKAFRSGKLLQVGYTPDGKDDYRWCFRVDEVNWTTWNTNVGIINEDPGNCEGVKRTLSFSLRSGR
- EXPERIMENTAL DETAILS: cell-based
pEC50: −log10 of the molar value.

[
  {
    "COMPOUND": "CCCCC/C=C/C=C/C(=O)NCCc1ccc(O)c(OC)c1 [Cap2]",
    "TARGET OR SYSTEM": "tsV1_M579V (Tupaia chinensis, UniProt L8Y7X1, M598V)",
    "pEC50": 3.08
  }
]
